Measured values drawn from paper PMC5884943 for this set.

# Avg_Inh (%) @ 50uM annotations
Biological target: human IDO1 protein (Homo sapiens)
Construct: purchased ChemPartner Lot; No. 20160706
Assay: Enzymatic IDO1 assay (Absorbance 321 assay)
Format: biochemical
Conditions: 50 uM, average inhibition, Table S2
State just the number; it will be interpreted in %.

compound | Avg_Inh (%) @ 50uM
Cc1ccc(/C=N/Nc2nc3ccccc3[nH]c2=O)cc1 [DCI-023] | -2.26
COc1ccc(C(N)=O)cc1NS(=O)(=O)c1cccc2cccnc12 [DCI-016] | 5.08
N#Cc1c(SCC(N)=O)nc2c(c1-c1cccnc1)CCC2 [DCI-007] | -0.85
OC1Cc2ccccc2Sc2c(Cl)cccc21 (stereo not shown) [DCI-033] | 45.38
COc1ccc2ccccc2c1CNc1ncn[nH]1 [DCI-092] | 1.56

## Task GET /values?readout=Avg_Inh (%) @ 50uM&system=human IDO1 protein (Homo sapiens)&item= Cc1nc2ccccc2cc1C(=O)N/N=C/c1cccc(Cl)c1 [DCI-065]
## Result 26.49

---

# Avg_Inh (%) @ 50uM annotations
Target: human IDO1 protein (Homo sapiens)
Construct: purchased ChemPartner Lot; No. 20160706
Experiment: Enzymatic IDO1 assay (Absorbance 321 assay)
Format: biochemical
Conditions: 50 uM, average inhibition, Table S2
State just the number; it will be interpreted in %.

Record excerpt, results attached:
compound | u | Avg_Inh (%) @ 50uM
O=C(CSc1nnc(COc2ccc(Cl)cc2Cl)o1)Nc1ccccn1 | % | 95.14
CCC(C(=O)Nc1cccc(C(C)O)c1)c1ccccc1 (stereo not drawn) | % | -2.26
O=c1c(-c2nc3ccccc3[nH]2)coc2cc(O)ccc12 | % | 9.07
COc1ccc(-c2nc(=O)cc(-c3ccccc3)o2)cc1 | % | 7.58
COc1ccc2nc(C(C)O)[nH]c2c1 (stereo not drawn) | % | -2.09

## Task GET /values?readout=Avg_Inh (%) @ 50uM&system=human IDO1 protein (Homo sapiens)&item= `COc1ccc2ccccc2c1/C=C(\C#N)c1nc2ccccc2[nH]1`
## Result 98.78

## Task GET /values?readout=Avg_Inh (%) @ 50uM&system=human IDO1 protein (Homo sapiens)&item= COc1cccc(-c2[nH]nc3c2C(c2ccccc2F)C(C#N)=C(N)O3)c1 (stereo not drawn)
## Result 22.90

## Task GET /values?readout=Avg_Inh (%) @ 50uM&system=human IDO1 protein (Homo sapiens)&item= `c1csc(CNCCCc2nc3ccccc3[nH]2)c1`
## Result -8.21

## Task GET /values?readout=Avg_Inh (%) @ 50uM&system=human IDO1 protein (Homo sapiens)&item= `O=C1NN(c2ncnc3sc4c(c23)CCCC4)C(=O)c2cccc3cccc1c23`
## Result 6.57

## Task GET /values?readout=Avg_Inh (%) @ 50uM&system=human IDO1 protein (Homo sapiens)&item= `Cc1sc2nn[nH]c(=O)c2c1C`
## Result 43.67

## Task GET /values?readout=Avg_Inh (%) @ 50uM&system=human IDO1 protein (Homo sapiens)&item= `Cc1ccc(C)c(NS(=O)(=O)c2ccc3ccccc3c2)c1`
## Result 58.68

## Task GET /values?readout=Avg_Inh (%) @ 50uM&system=human IDO1 protein (Homo sapiens)&item= `O=C(Cc1coc2ccc3ccccc3c12)N1CCCC1`
## Result -1.55

---

Target: human IDO1 protein (Homo sapiens, UniProt P14902)
Construct: purchased ChemPartner Lot; No. 20160706
Sequence (P14902 whole entry): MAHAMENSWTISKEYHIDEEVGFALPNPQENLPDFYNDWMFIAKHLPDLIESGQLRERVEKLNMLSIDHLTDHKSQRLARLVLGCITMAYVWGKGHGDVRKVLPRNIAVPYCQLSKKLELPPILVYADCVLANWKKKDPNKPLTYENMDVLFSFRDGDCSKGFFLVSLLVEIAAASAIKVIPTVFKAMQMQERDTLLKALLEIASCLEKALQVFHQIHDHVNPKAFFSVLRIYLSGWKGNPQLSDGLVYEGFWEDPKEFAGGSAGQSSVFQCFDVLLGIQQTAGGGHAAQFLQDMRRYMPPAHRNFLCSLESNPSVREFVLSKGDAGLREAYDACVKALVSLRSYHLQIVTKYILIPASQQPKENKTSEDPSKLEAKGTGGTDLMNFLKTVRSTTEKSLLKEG
Test: Enzymatic IDO1 assay (Absorbance 321 assay)
Type: biochemical
Conditions: 50 uM, average inhibition, Table S2
measurement.kind: Avg_Inh (%) @ 50uM
State just the number; it will be interpreted in %.

molecule | measurement.kind | u | experimental.value
Cc1cc(=O)c2ccc(C(F)(F)F)cc2[nH]1 [DCI-038] | Avg_Inh (%) @ 50uM | % | 6.52
CCc1ccc(OCC(=O)Nc2ccccc2C(N)=O)c(Br)c1 [DCI-074] | Avg_Inh (%) @ 50uM | % | 21.71
O=C(Nc1ccccc1OCC1CCCO1)NC1CCCCC1 (centres unmarked) [DCI-050] | Avg_Inh (%) @ 50uM | % | 0.29
O=C(c1ccc(OCCc2ccccc2)cc1)N1CCCC1 [DCI-093] | Avg_Inh (%) @ 50uM | % | 2.13
CCOc1nccc2sc3ccccc3c12 [DCI-044] | Avg_Inh (%) @ 50uM | % | 44.52

## Task Look up Avg_Inh (%) @ 50uM: CC(C)c1ccc(O)c(C(=O)c2cnn(-c3ccccc3)c2)c1 [DCI-024]
## Result 45.39

## Task Look up Avg_Inh (%) @ 50uM: CCn1c(SCc2nc3ccccc3[nH]2)nc2cc(C(=O)OC)ccc2c1=O [DCI-103]
## Result 43.77

## Task Look up Avg_Inh (%) @ 50uM: Nc1ncnc2sc3c(c12)CCC3 [DCI-001]
## Result -9.13

---

Target: human IDO1 protein (Homo sapiens)
Construct: purchased ChemPartner Lot; No. 20160706
Assay: Enzymatic IDO1 assay (Absorbance 321 assay)
Assay type: biochemical
Details: background signal of the compound in the absorbance assay
measurement.kind: Background (%)

Record excerpt, results attached:
compound | Background (%)
Clc1ccc2[nH]cc(-c3nnnn3-c3ccccc3)c2c1 | 38.90%
Cc1ccc(C2C(C#N)=C(N)Oc3ccc4ccc(O)cc4c32)cc1 (centres unmarked) | 42.53%
c1ccc2c3c(c(CN4CCCCC4)cc2c1)COC3 | 33.45%
Cc1cc(C)c2c(=O)cc(C(=O)Nc3cc(-c4ccc(F)cc4)no3)oc2c1 | 59.25%
CCCC1CCc2c(c3ccccc3[nH]c2=O)O1 (centres unmarked) | 45.02%
O=[N+]([O-])C1C(O)c2ccccc2OC1c1ccccc1 (centres unmarked) | 39.14%
CC(C)(C)NC(=O)Cc1coc2ccc3ccccc3c12 | 39.05%

Please turn your attention to the following entry.
## Task Look up Background (%): `COc1ccc2ccccc2c1/C=C(\C#N)c1nc2ccccc2[nH]1`
## Result 66.01%

---

Biological target: human IDO1 protein (Homo sapiens, UniProt P14902)
Construct: purchased ChemPartner Lot; No. 20160706
Assay: Enzymatic IDO1 assay (Absorbance 321 assay)
Assay type: biochemical
Details: 20 μM compound
# Inhibition ratio (%) @ 20 μM annotations
State just the number; it will be interpreted in %.

molecule | experimental.value
Cc1cc(-c2cccs2)c2c(N)c(C(=O)NCCc3c[nH]c4ccccc34)sc2n1 | 36.42
O=C(COC(=O)c1ccc2ccccc2n1)c1ccc(Cl)cc1 | 28.10
Nc1ccc(Br)cc1C(O)c1ccc(Cl)cc1 (centres unmarked) | 25.26
Cc1cccc(-c2nnc(SCC(=O)Nc3c(C)cc(C)cc3C)o2)c1 | 15.17

Please turn your attention to the following entry.
## Task Look up Inhibition ratio (%) @ 20 μM: `O=C(CSc1nnc(COc2ccc(Cl)cc2Cl)o1)Nc1ccccn1`
## Result 41.43

---

# inhibition at 20 µM annotations
Biological target: human IDO1 protein (Homo sapiens, UniProt P14902)
Construct: purchased ChemPartner Lot; No. 20160706
Test: Enzymatic IDO1 assay (Absorbance 321 assay)
Type: biochemical
Conditions: 20 μM compound; read-out: Inhibition ratio (%) @ 20 μM
State just the number; it will be interpreted in %.

## Task Look up inhibition at 20 µM: `Oc1ccc2ccccc2c1Sc1nnnn1-c1ccccc1`
## Result 15.6

## Task Look up inhibition at 20 µM: `COc1ccc(C(=O)NC(=S)Nc2c(O)ccc3ccccc23)cc1Br`
## Result 54.7

## Task Look up inhibition at 20 µM: `CCOc1cc(C(=O)NC(=S)Nc2c(O)ccc3ccccc23)cc(OCC)c1OCC`
## Result 75.3

## Task Look up inhibition at 20 µM: `CC(=O)Nc1cccc2ccc3c(c12)CN(Cc1ccccc1)CO3`
## Result -11.2

## Task Look up inhibition at 20 µM: `CC(=O)c1ccc(N2COc3ccc4ccccc4c3C2)cc1`
## Result 17.8

## Task Look up inhibition at 20 µM: `O=C(NC(=S)Nc1c(O)ccc2ccccc12)c1ccccc1Br`
## Result 61.3

## Task Look up inhibition at 20 µM: `O=C(NC(=S)Nc1cccc2cc(O)ccc12)c1ccco1`
## Result 15.6

## Task Look up inhibition at 20 µM: `COc1ccc(C(=O)NC(=S)Nc2cccc3cc(O)ccc23)cc1OC`
## Result 17.6

## Task Look up inhibition at 20 µM: `O=C(NC(=S)Nc1c(O)ccc2ccccc12)c1ccccc1I`
## Result 59.6

## Task Look up inhibition at 20 µM: `Clc1ccc(N2COc3ccc4ccccc4c3C2)cc1`
## Result 58

## Task Look up inhibition at 20 µM: `CC(=O)N(C)c1ccc(-c2c(O)ccc3ccccc23)cc1`
## Result 4.69

## Task Look up inhibition at 20 µM: `CCCCOc1cccc(-c2c(O)ccc3ccccc23)c1`
## Result 8.19

## Task Look up inhibition at 20 µM: `Cc1ccc([N+](=O)[O-])cc1N1COc2ccc3ccccc3c2C1`
## Result 39.1

## Task Look up inhibition at 20 µM: `Cc1ccc(Cl)cc1N1COc2ccc3ccccc3c2C1`
## Result 42.2
